- Study Target: EPHB4 (human)
- Test Description: radiometric filter-binding kinase assay
- Condition Parameters: compound 100.0 µM; ATP 5 µM
Measurement Type: inhibition (%)

Worked cases, inhibition given:
Ask: Query (molecule): "O=c1cc(-c2ccccc2F)nc2[nH]ccn12" ; field requested: inhibition
Result: 6

Ask: Follow-up item: "CC(C)(C)Nc1c(C2CC2)nc2[nH]cnn12"
Result: 19

Ask: Follow-up item: "Cc1cccc(C)c1-c1cn2nc(N)nc2cn1"
Result: 14

Ask: Follow-up item: "COc1ccc(NC(=S)Nc2cnc3[nH]cnn3c2=O)cn1"
Result: 1

Ask: Follow-up item: "O=c1c(NC(=S)NCc2ccccc2)cnc2[nH]ccn12"
Result: 9

Ask: Follow-up item: "O=C(Nc1cnc2[nH]cnn2c1=O)c1ccccc1"
Result: 6

Ask: Follow-up item: "O=C(c1cccc(-c2cc3c(=O)[nH]cnc3s2)c1)N1CCOCC1"
Result: 0

Ask: Follow-up item: "CC(=O)Nc1nc2cnc(-c3ccccc3)cn2n1"
Result: 11

I = COc1ccc(-c2cc3c(=O)[nH]cnc3s2)cc1OC
II = CC(C)(C)Nc1c(COCc2ccccc2)nc2[nH]cnn12
Ask: // compare measured inhibition, left I , right II , return larger # answer = label of selected item
Result: II
(II: 13%, I: 0%)

P = CC1CN(c2nc3ccccn3c(=O)c2N)CC(C)O1 (stereo not given)
Q = O=C(Nc1cnc2[nH]ccn2c1=O)c1ccccc1
Ask: Would you kindly point out which of P and Q has the smaller inhibition figure? # answer = label of selected item
Result: Q
(Q: 5%, P: 12%)

a = Nc1nc2cnc(-c3ccccc3)cn2n1
b = Nc1cnc2c(-c3c(F)cccc3F)cccn2c1=O
Ask: // compare measured inhibition, left a , right b , return larger # answer = label of selected item
Result: a
